In this section, each of the compounds is paired with its reported log10(TGI).
# Tested on: UACC-257 melanoma
# PROTOCOL: NCI tumour cell line growth inhibition, 48 h
OBSERVATION_TYPE: log10(TGI) (log10 of the value in µM)

- COMPOUND: "O=C(CCN1CCCN(c2cnc3ccccc3n2)CC1)c1csc2ccccc12"
  log10(TGI): 1.80
- COMPOUND: "CC(C)(C)CI"
  log10(TGI): 1.71
- COMPOUND: "COc1cc2c(cc1-c1coc3cc(O)ccc3c1=O)OCO2"
  log10(TGI): 1.93
- COMPOUND: "COc1cc2c(cc1[N+](=O)[O-])C(=O)C(Br)(Br)CCC2"
  log10(TGI): 1.43
- COMPOUND: "COc1cc2c(cc1OCCCN1CCN(C(=S)SCCC(C#N)(c3ccccc3)c3ccccc3)CC1)N=C[C@@H]1CCCN1C2=O"
  log10(TGI): 0.59
- COMPOUND: "COc1cc(N(CCCl)CCCl)ccc1/C=N\\NC(=O)c1cccnc1"
  log10(TGI): 1.80
- COMPOUND: "CC1CCc2c(sc3ncnc(N/N=C/c4ccc(Cl)cc4)c23)C1 (stereo not given)"
  log10(TGI): 1.85
- COMPOUND: "[CH3][Hg]/[N]=C(/N)NC#N"
  log10(TGI): 1.24
- COMPOUND: "C=C(C)[C@H]1CC(=O)[C@@]2(C)C[C@H]3O[C@]3(C)CC/C=C(\\C)CC[C@H]12"
  log10(TGI): 1.75

* * *

In this section, each of the compounds is paired with its reported TGI.
# Tested on: 786-0 renal
# PROTOCOL: NCI tumour cell line growth inhibition, 48 h

- COMPOUND: "COC(=O)[C@H](Cc1ccccc1)NC(=O)N(CCNC(=O)OC(C)(C)C)c1ccccc1"
  TGI: "> 100 µM"
- COMPOUND: "C=C(C)[C@H]1CC(=O)[C@@]2(C)C[C@H]3O[C@]3(C)CC/C=C(\\C)CC[C@H]12"
  TGI: "> 100 µM"
- COMPOUND: "Cc1ccccc1-n1c(CCl)nc2ccc(Br)cc2c1=O"
  TGI: "20.6 µM"
- COMPOUND: "O=C1c2ccccc2C(=O)N1NC1=NCCN1"
  TGI: "> 100 µM"
- COMPOUND: "O=C(CC1(O)C(=O)Nc2ccccc21)c1ccccc1O (configuration not stated)"
  TGI: "> 100 µM"
- COMPOUND: "CC(C)C(CCOS(=O)(=O)O)CCC(C)[C@H]1[C@@H](O)C(O)C2[C@]3(O)C[C@@H](O)C4(O)C[C@@H](O)CC[C@]4(C)C3CC[C@@]21C (some centres not stated)"
  TGI: "> 100 µM"
- COMPOUND: "CC(C)[Si](Oc1ccc(CC2N(C(=O)c3ccc([N+](=O)[O-])cc3)C(CCc3ccccc3)CC2(C)C=O)cc1)(C(C)C)C(C)C (configuration not stated)"
  TGI: "> 100 µM"
- COMPOUND: "CN(C)C1CN(C(=O)c2cc(-c3ccc4ncnc(N5CCc6cc(F)c(Cl)cc65)c4c3)cnc2N)C1"
  TGI: "> 100 µM"
- COMPOUND: "C[C@]12CC[C@H]3[C@@H](CC[C@]4(O)C[C@@H](O[C@@H]5O[C@H](CO)[C@@H](O[C@@H]6OC[C@@H](O)[C@H](O)[C@H]6O)[C@H](O)[C@H]5O)CC[C@]34C=O)[C@@]1(O)CC[C@@H]2C1=CC(=O)OC1"
  TGI: "5.19 µM"
- COMPOUND: "COc1ccc(Nc2cc(=O)[nH]c(=O)[nH]2)cc1"
  TGI: "> 100 µM"
- COMPOUND: "CC1=CC[C@@H](C(C)(C)O)C[C@@H]1O"
  TGI: "> 5000 µM"
- COMPOUND: "CC(=O)OCC1OC(O[C@H]2C=C[C@@H](C(=O)OCc3ccccc3)n3c(=O)n(-c4ccccc4)c(=O)n32)C(OC(C)=O)C(OC(C)=O)C1OC(C)=O (some centres not stated)"
  TGI: "4.51 µM"
- COMPOUND: "CN1C2(c3ccccc3)C(C(=O)c3ccccc3)=C(C(=O)c3ccccc3)C1(c1ccccc1)c1c(-c3ccccc3)sc(-c3ccccc3)c12"
  TGI: "> 100 µM"
- COMPOUND: "Nc1ccc(C2SCC(=O)N2NS(=O)(=O)c2cccc(C(=O)O)c2)cc1 (configuration not stated)"
  TGI: "> 100 µM"
- COMPOUND: "COc1cc(C)[nH]c(=O)c1CNC(=O)c1c(C)n([C@H](C)C2CCN(CC(F)(F)F)CC2)c2ccccc12"
  TGI: "> 100 µM"
- COMPOUND: "O=c1c2cc([N+](=O)[O-])ccc2n2n1CCCCC2"
  TGI: "> 100 µM"
- COMPOUND: "CCN(/N=C1\\CC2C=CCN(C2)C(=O)Cc2c1[nH]c1ccccc21)S(=O)(=O)c1ccc(C)cc1 (configuration not stated)"
  TGI: "> 100 µM"

* * *

# System: A498 renal
# PROTOCOL: NCI tumour cell line growth inhibition, 48 h
OBSERVATION_TYPE: log10 TGI (log10 of the value in µM)

- MOLECULE: "COC(=O)Nc1nc2ccc(C(=O)c3ccc(F)cc3)cc2[nH]1"
  ASSAY_TARGET: "A498 renal"
  log10 TGI: 0.65
- MOLECULE: "CC(=O)O[C@@H]1CC[C@@]2(C)C(=O)C34C[C@@]5(C)C([C@@H](C)CCCC(C)C)CCC5(C)[C@](O)(O3)C(=O)[C@H]4C2C1(C)C (stereo not given in full)"
  ASSAY_TARGET: "A498 renal"
  log10 TGI: 1.59
- MOLECULE: "O[C@@]12Cc3c([nH]c4ccccc34)[C@@H]3Oc4c(-c5ccccc5)ccc5c4[C@@]31CCN(CC1CC1)[C@@H]2C5"
  ASSAY_TARGET: "A498 renal"
  log10 TGI: 0.45
- MOLECULE: "Cc1c(C#N)c2nc3ccccc3n2c(=O)/c1=C/Nc1ccc(Cl)cc1"
  ASSAY_TARGET: "A498 renal"
  log10 TGI: 1.86
- MOLECULE: "Fc1ccc(Nc2nc3nonc3nc2Nc2ccc(I)cc2)cc1"
  ASSAY_TARGET: "A498 renal"
  log10 TGI: -0.15
- MOLECULE: "CC[C@@]1(O)C(=O)OCc2c1cc1n(c2=O)Cc2c-1nc1cc(F)c(C)c3c1c2[C@@H](NC(=O)CO)CC3"
  ASSAY_TARGET: "A498 renal"
  log10 TGI: -1.29
- MOLECULE: "C[C@@H]1CC[C@@]2(C)[C@H](C)/C(=C\\COC(=O)/C=C/c3ccc(O)c(O)c3)CC[C@@]12C"
  ASSAY_TARGET: "A498 renal"
  log10 TGI: 1.41
- MOLECULE: "COc1cc(N2CCC(N)CC2)ccc1Nc1ncc(Cl)c(-c2c[nH]c3ccccc23)n1"
  ASSAY_TARGET: "A498 renal"
  log10 TGI: -0.41

* * *

# Test system: HOP-62 NSCLC
# PROTOCOL: NCI tumour cell line growth inhibition, 48 h
OBSERVATION_TYPE: TGI

- MOLECULE: "COc1cc(C)[nH]c(=O)c1CNC(=O)c1c(C)n([C@H](C)C2CCN(CC(F)(F)F)CC2)c2ccccc12"
  ASSAY_TARGET: "HOP-62 NSCLC"
  OBSERVATION_TYPE: "TGI"
  VALUE_MEASURED: "> 100 µM"
- MOLECULE: "CC1CC(=O)Nc2ccccc2N1C(=O)C1CC1 (stereo not given)"
  ASSAY_TARGET: "HOP-62 NSCLC"
  OBSERVATION_TYPE: "TGI"
  VALUE_MEASURED: "> 100 µM"
- MOLECULE: "Cn1c(=O)cc(Nc2ccc(N)cc2)[nH]c1=O"
  ASSAY_TARGET: "HOP-62 NSCLC"
  OBSERVATION_TYPE: "TGI"
  VALUE_MEASURED: "> 100 µM"
- MOLECULE: "O=C(CN1CCN(C(=O)c2ccco2)CC1)Nc1ccc(Cl)cc1C(=O)c1ccccc1Cl"
  ASSAY_TARGET: "HOP-62 NSCLC"
  OBSERVATION_TYPE: "TGI"
  VALUE_MEASURED: "35.6 µM"
- MOLECULE: "O=C(CC(C(=O)c1cccs1)c1ccc2c(c1)OCO2)c1ccccc1 (stereo not given)"
  ASSAY_TARGET: "HOP-62 NSCLC"
  OBSERVATION_TYPE: "TGI"
  VALUE_MEASURED: "> 100 µM"

* * *

# Test system: MDA-MB-435
# PROTOCOL: NCI tumour cell line growth inhibition, 48 h
In this section, each of the molecules is paired with its reported TGI.
OBSERVATION_TYPE: TGI (µM)

- MOLECULE: "COc1ccc(/C=C/C(=O)CCN2CCN(CCC(=O)/C=C/c3ccc(OC)cc3)CC2)cc1"
  INEQUALITY_SYMBOL: "="
  VALUE_MEASURED: 24.6
- MOLECULE: "CC1[C@@H]2CC=C3[C@H]4CCC5Cc6nc7c(nc6C[C@@]5(C)C4CC(=O)[C@]32CO[C@]12OC(C)(C)CC2O)CC1CC[C@@H]2C3=C[C@H]4O[C@@]5(O[C@@](C)(CO)C[C@@H]5O)C(C)[C@@]4(O)[C@]3(C)[C@@H](O)CC2[C@]1(C)C7 (some centres undefined)"
  INEQUALITY_SYMBOL: "="
  VALUE_MEASURED: 0.0168
- MOLECULE: "CC(=O)ON=C1C=CC(=C(C#N)c2ccccc2)C=C1"
  INEQUALITY_SYMBOL: "="
  VALUE_MEASURED: 2.28
- MOLECULE: "CCCCCCCCCCCCCCCCCCOc1ccccc1COP(=O)(O)OOCC[N+](C)(C)C"
  INEQUALITY_SYMBOL: "="
  VALUE_MEASURED: 12.3
- MOLECULE: "CC(C)c1c(O[Si](C(C)C)(C(C)C)C(C)C)cc2c(c1O)CC[C@H]1C(C)(C)CCC[C@]21C"
  INEQUALITY_SYMBOL: ">"
  VALUE_MEASURED: 100
- MOLECULE: "CN1CCN(c2n[nH]c(=O)c3c2nnn3C2CCCCC2)CC1"
  INEQUALITY_SYMBOL: ">"
  VALUE_MEASURED: 100
- MOLECULE: "O=C(O)c1ccc(Nc2cnc3cc(C(F)(F)F)ccc3n2)cc1"
  INEQUALITY_SYMBOL: ">"
  VALUE_MEASURED: 100
- MOLECULE: "Cc1cc(N=Cc2c(CO)cnc(C)c2O)c(N=Cc2c(CO)cnc(C)c2O)cc1C"
  INEQUALITY_SYMBOL: ">"
  VALUE_MEASURED: 100
- MOLECULE: "O=C(Nc1ccc(Cl)cc1)c1cc(S(=O)(=O)N2CCNNC2=O)c(S)cc1Cl"
  INEQUALITY_SYMBOL: ">"
  VALUE_MEASURED: 100
- MOLECULE: "c1ccc2c(c1)-c1ccccc1C2NC1=NCCO1"
  INEQUALITY_SYMBOL: "="
  VALUE_MEASURED: 53
- MOLECULE: "COc1c(B(O)O)cccc1-c1nc2c(F)cc3n[nH]c(C)c3c2c2c1CCCC2"
  INEQUALITY_SYMBOL: ">"
  VALUE_MEASURED: 50
- MOLECULE: "O=C(CC(=O)N1N=C(N(c2ccccc2)c2ccccc2)CC1c1ccccc1)Nc1cccc(Cl)c1 (centres undefined)"
  INEQUALITY_SYMBOL: ">"
  VALUE_MEASURED: 100
- MOLECULE: "O=C(O)c1ccc(/C=N/N=C2c3ccccc3-c3ccccc32)cc1"
  INEQUALITY_SYMBOL: ">"
  VALUE_MEASURED: 100
- MOLECULE: "NC1NCCC(=O)N1CCc1c[nH]c2ccccc12 (centres undefined)"
  INEQUALITY_SYMBOL: "="
  VALUE_MEASURED: 30.7
